Attribution: ChEMBL document CHEMBL4002566

# System: Mycobacterium avium
# measurement-description: Antimycobacterial activity against Mycobacterium avium CNCTC My 330/88 after 14 days by micromethod
# Type: functional
# condition-details: CNCTC My 330/88, 336 h
Please note: MIC exactly at 60 µM is N. Only values below 60 µM get Y.

Reference set (4 entries):
{"columns": ["input-smiles", "tested-target", "answer-label"],
 "data": [
  ["O=[N+]([O-])c1cc(O)cc(-c2nnc(SCc3ccc(Cl)c(Cl)c3)o2)c1", "Mycobacterium avium", "N"],
  ["Nc1cc(-c2nnc(SCc3ccc([N+](=O)[O-])cc3)o2)cc([N+](=O)[O-])c1", "Mycobacterium avium", "N"],
  ["O=[N+]([O-])c1cc(-c2nnc(SCc3ccc(Cl)cc3Cl)o2)cc([N+](=O)[O-])c1", "Mycobacterium avium", "N"],
  ["CC(=O)Nc1cc(-c2nnc(SCc3ccc(Cl)cc3)o2)cc([N+](=O)[O-])c1", "Mycobacterium avium", "N"]
]}

input: MIC strictly < 60 µM for this compound? `Nc1cc(-c2nnc(SCc3ccccc3)o2)cc([N+](=O)[O-])c1`
output: N

input: MIC strictly < 60 µM for this compound? `Nc1cc(-c2nnc(SCc3ccc(Cl)cc3)o2)cc([N+](=O)[O-])c1`
output: N

input: MIC strictly < 60 µM for this compound? `COc1ccc(CSc2nnc(-c3cc([N+](=O)[O-])cc(C(F)(F)F)c3)o2)cc1`
output: N

* * *

# measurement-description: Cytotoxicity against human HuH7 cells assessed as cell viability at 30 uM after 48 hrs by MTS assay relative to control
# Format: cell-based, Huh-7
# condition-details: read-out: Activity
assay-readout: viability at 48 h, 30 µM (%)
All answers are understood in %, so give the number only.

{"columns": ["input-smiles", "value-reported"],
 "data": [
  ["O=[N+]([O-])c1cc(-c2nnc(SCc3ccc(Cl)c(Cl)c3)o2)cc([N+](=O)[O-])c1", 153],
  ["O=[N+]([O-])c1cc(-c2nnc(SCc3ccc(Br)cc3)o2)cc([N+](=O)[O-])c1", 143],
  ["COc1ccc(CSc2nnc(-c3cc([N+](=O)[O-])cc([N+](=O)[O-])c3)o2)cc1", 118],
  ["O=[N+]([O-])c1cc(-c2nnc(SCc3ccccc3Cl)o2)cc([N+](=O)[O-])c1", 144],
  ["O=[N+]([O-])c1cc(-c2nnc(SCc3ccc(Cl)cc3)o2)cc([N+](=O)[O-])c1", 126]
]}

input: Give viability at 48 h, 30 µM for `O=[N+]([O-])c1cc(-c2nnc(SCc3cccc(Cl)c3)o2)cc([N+](=O)[O-])c1`
output: 158

input: Give viability at 48 h, 30 µM for `O=[N+]([O-])c1cc(-n2nnnc2SCc2ccc(Cl)c(Cl)c2)cc([N+](=O)[O-])c1`
output: 137

input: Give viability at 48 h, 30 µM for `O=[N+]([O-])c1cc(-n2nnnc2SCc2ccc(Cl)cc2)cc([N+](=O)[O-])c1`
output: 115

* * *

We begin with a simple list: items and their reported viability at 48 h, 30 µM.
# measurement-description: Cytotoxicity against human HepG2 cells assessed as cell viability at 30 uM after 48 hrs by MTS assay relative to control
# Type: cell-based
# condition-details: read-out: Activity
All answers are understood in %, so give the number only.

Some compounds with recorded viability at 48 h, 30 µM:
{"columns": ["input-smiles", "assay-readout", "value-reported"],
 "data": [
  ["O=[N+]([O-])c1cc(-c2nnc(SCc3cccc(Cl)c3)o2)cc([N+](=O)[O-])c1", "viability at 48 h, 30 µM", 129],
  ["O=[N+]([O-])c1cc(-c2nnc(SCc3ccc(Cl)cc3)o2)cc([N+](=O)[O-])c1", "viability at 48 h, 30 µM", 126],
  ["COc1ccc(CSc2nnc(-c3cc([N+](=O)[O-])cc([N+](=O)[O-])c3)o2)cc1", "viability at 48 h, 30 µM", 126]
]}

input: Give viability at 48 h, 30 µM for `O=[N+]([O-])c1cc(-n2nnnc2SCc2ccc(Cl)c(Cl)c2)cc([N+](=O)[O-])c1`
output: 145

input: Give viability at 48 h, 30 µM for `O=[N+]([O-])c1cc(-n2nnnc2SCc2ccc(Cl)cc2)cc([N+](=O)[O-])c1`
output: 134

input: Give viability at 48 h, 30 µM for `O=[N+]([O-])c1cc(-c2nnc(SCc3ccccc3Cl)o2)cc([N+](=O)[O-])c1`
output: 129

input: Give viability at 48 h, 30 µM for `O=[N+]([O-])c1cc(-c2nnc(SCc3ccc(Cl)c(Cl)c3)o2)cc([N+](=O)[O-])c1`
output: 125

input: Give viability at 48 h, 30 µM for `O=[N+]([O-])c1cc(-c2nnc(SCc3ccc(Br)cc3)o2)cc([N+](=O)[O-])c1`
output: 113
